B1: SLC35F2 (parent)
chain: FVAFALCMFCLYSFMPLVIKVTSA

variants of: B1; experiment: protein stability index of a GFP-peptide fusion (GPS, HEK-293T) (PSI 1-6); higher = more stable; details: c terminus: a fixed tail appended;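 note: lentivirally expressed fusions sorted by FACS into six bins by GFP to DsRed ratio, PSI derived from sequencing read proportions per bin multiplied by bin number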
I'd be grateful if you could share measured protein stability index for these entries.
One number for each entry.

{"columns": ["mutation_name", "readout_kind", "endpoint_value"],
 "data": [
  ["A5R", "protein stability index", 2.84]
]}

Hi! Can you tell me protein stability index for each of these variants?
1. A3C
2. V18F
3. C10N
4. F1Q
5. F9W
6. F14M

**Result**
1: 2.05; 2: 2.85; 3: 2.8; 4: 3.03; 5: 2.68; 6: 2.52
